experimentalSystem: sCoV2-RBD (Fc-tagged RBD of SARS-CoV-2 S protein) (SARS-CoV-2; human, UniProt P0DTC2 319-541)
assayMethodText: ELISA titration on coated sCoV2-RBD
Threshold 4 nM. EC50 below it: Yes. EC50 at it or above: No.

Is 4 nM strictly greater than the binder's reported EC50? binder: CoV2-17 (antibody, V domains shown) VH: QVELVESGGGLVKPGGSLRLSCAASGFTFSSYSMNWVRQAPGKGLEWVSSISSSSSYIYYADSVKGRFTISRDNAKNSLYLQMNSLRAEDTAVYYCARGNVDIVATGEVDAFDIWGQGTMVSVSS VL: QAVVTQPPSASGTLGQRVTISCSGSSSTIGSNYVYWYQQLPGTAPKLLIYRNNQRPSGVPDRFSGSKSGTSASLAISGLRSEDEADYYCAAWDDSLSGYVFGTGTQLTVL
Yes

is_below(EC50, 4 nM) for CoV2-01 (antibody, V domains shown) VH: QVLLVQSGAEMKKPGASVKVSCKTSGYTFTNSYIHWVRQAPGQGLEWMGWINPISGGTNYAQKFQGRVTMTRDTSINTAYMELSRLRSDDTAVYYCARDRGDYDYGWGTSPFYFDYWGQGTLVTVSS VL: DVQMTQSPSSLSASVGDRVTITCRASQSISRYLNWYQQKPGKAPKLLIYAASSLQSGVPSRFSGSGSGADFTLTISSLQPEDFATYYCQQSFSPPITFGQGTRLEIK ?
Yes

Determine whether this binder shows EC50 lower than 4 nM (ties excluded): CoV2-34 (antibody, V domains shown) VH: QVQLHQWGAGLLKPSETLSRTCAVYGGSFSGYSWTWIRQAPGKGLEWIGEVNHGGKTNYNPSLESRLSISVDTSKNQFSLELRSVTAADTAVYYCARGYDTNWYGDGYNWFDPWGQGTLVSVSS VL: DIQMTQSPSSLSASVGDRVTITCRASQKIDNFLNWYQQKPGKAPKLLIHGASNLQGGVSSRFSGSRSGTDFTLTITNLQPEDFATYYCQQSYNTPITFGQGTRLEIK
No

Find out if reported EC50 for CoV2-22 (antibody, V domains shown) VH: QVQLVQSGAEMKKPGASVKVSCKTSGYTFTNSYIHWVRQAPGQGLEWMGWINPISGGTNYAQKFQGRVTMTRDTSINTAYMELSRLRSDDTAVYYCARDRGDYDYGWGTSPFYFDYWGQGTLVTVSS VL: DVQMTQSPSSLSASVGDRVTITCRASQSISSYLNWYQQKPGKAPKLLIYGASSLESGVPSRFSGGGSGTDFTLTISSLQPEDFASYYCQQSYSIPFTFGPGTTVDIK is less than 4 nM
Yes

Problem: For the binder CoV2-24 (antibody, V domains shown) VH: QVQLHQWGAGLLKPSETLSRTCAVYGGSFSGYYWTWIRQAPGKGLEWIGEINHGGSTRYNPSLESRVSISVDTSKKQFSLELRSVTAADTAIYYCARGLVGGGAFDIWGQGTMVTVSS VL: NFMLTQPSSVSVAPGQTARITCGGDNIGSTGVHWYQQKPGQAPVLVVYDDTDRPSGIPERFSGSKSGNTAALTISGVEAGDEADFYCQVWDSSGHSYVFGTGTKVTVL , is EC50 under 4 nM?
No

Say whether its EC50 is strictly beneath 4 nM. Entry: CoV2-05 (antibody, V domains shown) VH: EVQLVESGGGVARPGGSLRLSCAASGFTFDDYGMSWVRQVPGKGLEWVAGINWNGERIGYADSVKGRFTISRDNAKNSLYLQMNSLRAEDTALYYCARPSGDYVAWYFNLWGRGTLVTVSS VL: QAALTQPRSVSGSPGQSVTISCTGTGSDVGPYKYVSWYQQHPGKAPKLMIYDVNERPSGVPDRFSGSKSGNTASLTISGLQAEDEADYYCGSYAGNNKWVFGGGTKLTVL
No

I'd appreciate it if you could check whether CoV2-23 (antibody, V domains shown) VH: QVQLVESGGGLVQPGRSLRLSCAASGFTFDDYAMHWVRQAPGKGLEWVSGISWNSGSIGYADSVKGRFTISRDNAKNSLYLQMNSLRAEDTALYYCAKDMDIWFGGGLDYWGQGTLVSVSS VL: DVQMTQSPSSVSASVGDRVTITCRASEGIGNWLAWYQQKPGKAPKLLIYEASSLQSGVPSRFSGSGSGADFTLTISSLQPEDFGTYYCLQANSFPITFGRGTKLEIK has EC50 smaller than 4 nM.
Yes

Threshold test, EC50 < 4 nM: CoV2-35 (antibody, V domains shown) VH: QVQLHQWGAGLLKPSETLSRTCAVYGGSFSGYSWTWIRQAPGKGLEWIGEINHGGSTKYNPSLESRVTISVDTSKKQFSLELRSVTAADTAVYYCARGYDTNWYGDGYNWFDPWGQGTLVSVSS VL: NFMLTQPASVSVAPGKTASITCGGDNIGTKSVHWYRQKPGQAPVLVIYYDSDRPSGIPERFSGSNSGNTATLTISRVEAGDEADYYCQVGDSSSHVVFGGGTKVTVL
No

Regarding CoV2-13 (antibody, V domains shown) VH: QVQLQQSGAEVKKPGSSVKVSCKASGGNFRSHTFSWVRQAPGQGLEWMGEIMPRFGATNYAQKFQGRVTITADESTGTTYMELSSLKSHDTAVYFCAADLGSGRKFDSWAQGTLVSVSS VL: NIQMTQSPSSLSASVGDRVTITCRASQGIGSDLGWYQQRPGKAPKRLIYAASSLQSGVPSRFSGSGSGTEFTLTISSLQPEDFATYYCLQHNSYPLTFGQGTKVEIK , kindly confirm whether its EC50 is beneath 4 nM.
Yes

hey, is EC50 for CoV2-20 (antibody, V domains shown) VH: QVQLVESGGDLVQPGRSLRLSCAASGFIFDDYAMHWVRQVPGKGPEWVSGVNRDSTYVGQADSVKGRFTISRDNAKKALFLQMDSLRVEDTALYYCVRGMTRVATDAFDFWGQGTMVTVSS VL: AIQMTQSPSSLSASVGDRVTITCRASQSINGYLNWYQQKPGKAPKLLIYSASRLQSGVPSRFSGSGSGADYTLTISNLQVEDFATYYCQQSYSTPPVTFGQGTRLEIK lower than 4 nM or not?
No
